Kindly supply the reported IC50 values for the records listed here.
Molecular target: α-glucosidase (AG) type I from Saccharomyces cerevisiae (Saccharomyces cerevisiae, UniProt P53341)
Sequence (P53341 whole entry): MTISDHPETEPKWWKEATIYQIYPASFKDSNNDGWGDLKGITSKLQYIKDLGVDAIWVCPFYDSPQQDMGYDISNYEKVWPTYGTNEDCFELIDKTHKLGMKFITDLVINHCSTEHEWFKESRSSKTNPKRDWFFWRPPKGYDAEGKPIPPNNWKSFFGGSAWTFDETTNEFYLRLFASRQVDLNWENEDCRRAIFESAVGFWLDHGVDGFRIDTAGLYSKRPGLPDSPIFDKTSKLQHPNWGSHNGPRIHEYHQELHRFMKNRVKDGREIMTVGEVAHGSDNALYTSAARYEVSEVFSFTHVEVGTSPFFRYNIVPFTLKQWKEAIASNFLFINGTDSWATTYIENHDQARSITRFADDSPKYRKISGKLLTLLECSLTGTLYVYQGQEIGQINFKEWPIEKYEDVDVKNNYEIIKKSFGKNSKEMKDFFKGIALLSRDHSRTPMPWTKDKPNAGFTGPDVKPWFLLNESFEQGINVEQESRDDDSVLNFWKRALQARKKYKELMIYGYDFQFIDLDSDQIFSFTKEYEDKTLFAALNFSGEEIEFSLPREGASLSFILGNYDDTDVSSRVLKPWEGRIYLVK
Test: biochemical
One number for each entry, in µM.

For orientation, consider the following solved cases.
> print(dat)
                                   compound  observable  test.value
1  COc1c(O)cc2oc3cc4c(c(O)c3c(=O)c2c1CC=C(C)C)CCC(C)(C)O4        IC50        37.2
2  COc1c(O)cc2oc3cc(O)c(CCC(C)C)c(O)c3c(=O)c2c1CCC(C)C [Compound 9, tetrahydro-α-mangostin]        IC50        34.2

Query compound follows.
query: Query: IC50; subject: `COc1c(O)cc2oc3cc(O)c(CC=C(C)C)c(O)c3c(=O)c2c1CC=C(C)C`
result: 31.6

---

Target: pancreatic lipase type II (PL) from porcine pancreas (Sus scrofa)
Sequence (P00591 whole entry): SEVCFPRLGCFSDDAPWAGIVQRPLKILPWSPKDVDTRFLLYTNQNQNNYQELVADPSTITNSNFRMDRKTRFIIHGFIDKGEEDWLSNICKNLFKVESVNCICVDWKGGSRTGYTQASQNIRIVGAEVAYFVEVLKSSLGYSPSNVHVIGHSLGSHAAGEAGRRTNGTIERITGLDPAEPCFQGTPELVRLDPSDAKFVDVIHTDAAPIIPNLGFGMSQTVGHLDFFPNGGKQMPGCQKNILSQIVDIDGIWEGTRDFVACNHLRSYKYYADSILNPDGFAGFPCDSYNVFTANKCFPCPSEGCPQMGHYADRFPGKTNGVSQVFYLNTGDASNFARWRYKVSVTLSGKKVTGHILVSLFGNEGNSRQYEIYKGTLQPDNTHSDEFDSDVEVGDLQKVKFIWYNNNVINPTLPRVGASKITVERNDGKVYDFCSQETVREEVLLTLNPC
OBSERVABLE: IC50 (µM)
Give bare numbers, in µM.

For orientation, consider the following solved cases.
> print(dat)
                                   compound  readout.units  test.value
1  CC(C)=CCc1c(O)cc2oc3cc(O)c(O)c(CC=C(C)C)c3c(=O)c2c1O [Compound 5, γ-mangostin]             µM        67.1
2  COc1cc2oc3c(C)c(OC)c(CC=C(C)C)c(O)c3c(=O)c2c(CC=C(C)C)c1OC [Compound 11, 3,6-di-methoxy-4-methyl-α-mangostin]             µM        59.4

Required: IC50, one value per compound below.
1. COc1c(O)cc2oc3cc(O)c(CCC(C)C)c(O)c3c(=O)c2c1CCC(C)C [Compound 9, tetrahydro-α-mangostin]
2. COc1cc2oc3cc(OC)c(OC)c(CC=C(C)C)c3c(=O)c2c(O)c1CC=C(C)C [Compound 6, fuscaxanthone C]
3. COc1c(O)cc2oc3cc(O)c(CC=C(C)C)c(O)c3c(=O)c2c1CC=C(C)C [Compound 4, α-mangostin]
4. COc1c(O)cc2oc3cc4c(c(O)c3c(=O)c2c1CC=C(C)C)C=CC(C)(C)O4 [Compound 1, 9-hydroxycalabaxanthone]

result:
1. 455
2. 69.2
3. 50.6
4. 138

---

Kindly supply the reported IC50 values for the records listed here.
Target: α-glucosidase (AG) type I from Saccharomyces cerevisiae (Saccharomyces cerevisiae)
Experiment: biochemical
Conditions: α-Glucosidase IC50 (µM), evaluated range 6.25 µM–1000 µM; mean of n = 3 ± SD

For orientation, consider the following solved cases.
> print(dat)
                                item.smiles                               test.target  test.value
1  COc1cc2oc3cc(OC)c(OC)c(CC=C(C)C)c3c(=O)c2c(O)c1CC=C(C)C  α-glucosidase (AG) type I from Saccharomyces cerevisiae (Saccharomyces cerevisiae)     33.3 µM
2  CCCCCOc1cc2oc3cc(OCCCCC)c(OC)c(CC=C(C)C)c3c(=O)c2c(O)c1CC=C(C)C  α-glucosidase (AG) type I from Saccharomyces cerevisiae (Saccharomyces cerevisiae)   > 1000 µM
3  CC(C)=CCc1c(O)cc2oc3cc(O)c(O)c(CC=C(C)C)c3c(=O)c2c1O  α-glucosidase (AG) type I from Saccharomyces cerevisiae (Saccharomyces cerevisiae)     84.7 µM

query: Query: IC50; subject: `COc1cc2oc3c(C)c(OC)c(CC=C(C)C)c(O)c3c(=O)c2c(CC=C(C)C)c1OC`
result: > 1000 µM
